inhibition at 10 µM values, listed per item
- System: Human peripheral blood mononuclear cells
- EXPERIMENTAL_PROTOCOL: Human Concanavalin-A Proliferation Assay (Con HU Assay)
- Assay type: cell-based
- TEST_SETTINGS: Homo sapiens, PBMC, 72 h, concentration 10 μm (in parentheses in the cell); concanavalin-A stimulated human PBMC, 3 days; read-out: % Inhibition of proliferation (at concentrations of 1,10, or 100 μm)

COMPOUND | TESTED_ON | inhibition at 10 µM (%)
O=C(Nc1ccc(-n2nc(C(F)(F)F)cc2C(F)(F)F)cc1)c1cnns1 [Example 244] | Human peripheral blood mononuclear cells | 94
COC1CCCC(C(=O)Nc2ccc(-n3nc(C(F)(F)F)cc3C(F)(F)F)cc2)C1 (centres unmarked) [Example 11] | Human peripheral blood mononuclear cells | 100
O=C(Nc1ccc(-n2nc(C(F)(F)F)cc2C(F)(F)F)cc1)c1ccc(Cl)s1 [Example 253] | Human peripheral blood mononuclear cells | 94
O=C(O)c1cccc(C(=O)Nc2ccc(-n3nc(C(F)(F)F)cc3C(F)(F)F)cc2)c1 [Example 159] | Human peripheral blood mononuclear cells | 93
O=C(Nc1ccc(-n2nc(C(F)(F)F)cc2C(F)(F)F)cc1)c1ccc(Cl)cc1O [Example 220] | Human peripheral blood mononuclear cells | 100
